Biological target: T1, human CD20 antigen (human, UniProt P11836 1-297)
T1 sequence (looked up): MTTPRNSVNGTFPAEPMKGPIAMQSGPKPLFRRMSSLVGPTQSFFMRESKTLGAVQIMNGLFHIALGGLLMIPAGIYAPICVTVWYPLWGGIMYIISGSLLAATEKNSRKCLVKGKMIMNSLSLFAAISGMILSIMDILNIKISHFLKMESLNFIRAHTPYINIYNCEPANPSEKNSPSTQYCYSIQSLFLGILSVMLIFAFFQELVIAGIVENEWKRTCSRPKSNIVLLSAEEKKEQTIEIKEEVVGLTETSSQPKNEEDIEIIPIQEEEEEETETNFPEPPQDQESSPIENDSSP
Experiment: cell-based or functional assay
property.name: CDC (10 ug/ml), SUDHL4

>>> observed_measurement("chimerized 1K1791 antibody (c1791) (antibody, V domains shown) VH: QIQLVQSGPELKKPGETVKISCKASGYTFTNFGVNWVKQAPGKGLKWMGWINTYTGEPSYADDFKGRFAFSLEASANTAYLQINNLKNDDMSTYFCTRRTNYYGTSYYYAMDYWGQGTSVTVSS VL: STVMTQTPKFLLVSAGDRVTITCKASQSVSNDVAWYQQKPGQSPKVLIYFASNRYTGVPDRFTGSGYGTDFTFTINTVQAEDLAVYFCQQDYSSPLTFGAGTKLELK")
"119 relative, c2B8 = 100"
>>> observed_measurement("humanized 1K1791 antibody ff (FraL x FraH) (antibody, V domains shown, Kappa, gamma 1 construct; also called hz1791 ff; Ff019) VH: QIQLVQSGSELKKPGASVKVSCKASGYTFTNFGVNWVKQAPGKGLKWMGWINTYTGEPSYADDFKGRFAFSLDASASTAYLQISSLKAEDMATYFCTRRTNYYGTSYYYAMDYWGQGTTVTVSS VL: STVMTQSPSFLSASVGDRVTITCKASQSVSNDVAWYQQKPGQSPKVLIYFASNRYTGVPDRFSGSGYGTDFTLTISSLQAEDVAVYFCQQDYSSPLTFGAGTKLEIK")
"121 relative, c2B8 = 100"
>>> observed_measurement("humanized 1K1791 antibody sf (SdrL x FraH) (antibody, V domains shown, Kappa, gamma 1 construct; also called hz1791 sf; Sf043) VH: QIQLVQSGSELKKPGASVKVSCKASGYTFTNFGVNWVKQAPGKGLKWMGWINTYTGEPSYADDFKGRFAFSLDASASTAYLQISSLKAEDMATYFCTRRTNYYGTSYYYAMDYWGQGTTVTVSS VL: STVMTQSPDSLAVSLGERATINCKSSQSNSNDVAWYQQKPGQSPKVLIYFASNRYSGVPDRFSGSGYGTDFTLTISSLQAEDVAVYFCQQDYSSPLTFGAGTKLEIK")
"111 relative, c2B8 = 100"
>>> observed_measurement("humanized 1K1791 antibody ss (SdrL x SdrH) (antibody, V domains shown, Kappa, gamma 1 construct; also called hz1791 ss; Ss020) VH: QIQLVQSGSELKKPGASVKVSCKASGYTFTNFGVNWVRQAPGKGLKWMGWINTYTGEPSYAQGFTGRFAFSLDASVSTAYLQISSLKAEDTATYFCTRRTNYYGTSYYYAMDYWGQGTTVTVSS VL: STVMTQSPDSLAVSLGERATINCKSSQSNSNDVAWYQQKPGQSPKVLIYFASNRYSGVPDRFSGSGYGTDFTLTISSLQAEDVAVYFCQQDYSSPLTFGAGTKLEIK")
"61 relative, c2B8 = 100"
>>> observed_measurement("humanized 1K1791 antibody fv (FraL x VenH) (antibody, V domains shown, Kappa, gamma 1 construct; also called hz1791 fv; Fv010) VH: QIQLVQSGPELKKPGASVKISCKASGYTFTNFGVNWVKQAPGKGLKWMGWINTYTGEPSYADDFKGRFAFSLDASVSTAYLQISSLKAEDTSTYFCTRRTNYYGTSYYYAMDYWGQGTTVTVSS VL: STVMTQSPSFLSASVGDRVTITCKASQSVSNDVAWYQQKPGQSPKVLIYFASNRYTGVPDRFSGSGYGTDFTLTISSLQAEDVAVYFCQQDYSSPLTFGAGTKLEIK")
"120 relative, c2B8 = 100"
